System: panel of more than 300 wild-type and mutant kinases (313 kinase panel)
Test description: Kinase profiling in a biochemical assay panel (mobility shift assays and ELISA), %-inhibition at 1 μM; selectivity entropy
Setup conditions: 1 µM
Assay metric: %-inhibition of EML4-ALK (%)
Kindly answer with a numeric value in %, unit omitted.

COc1cc(Nc2c(C#N)cnc3cc(OCCCN4CCN(C)CC4)c(OC)cc23)c(Cl)cc1Cl = 54

Continue with the compound presented below.
Query: Give its %-inhibition of EML4-ALK value. Item: Cc1ccc(Nc2nccc(N(C)c3ccc4c(C)n(C)nc4c3)n2)cc1S(N)(=O)=O
Response: 27

----------
System: panel of more than 300 wild-type and mutant kinases (313 kinase panel) (Homo sapiens, UniProt P35916)
Test description: Kinase profiling in a biochemical assay panel (mobility shift assays and ELISA), %-inhibition at 1 μM; selectivity entropy
Setup conditions: kinase FLT4; compound at 1 μM
Assay metric: %-inhibition of FLT4
The reply must contain the numeric value and, after it, the unit.

Cc1nc(Nc2ncc(C(=O)Nc3c(C)cccc3Cl)s2)cc(N2CCN(CCO)CC2)n1 = 31%
C[C@@H](Oc1cc(-c2cnn(C3CCNCC3)c2)cnc1N)c1c(Cl)ccc(F)c1Cl = 48%
Cc1ccc(C(=O)Nc2ccc(CN3CCN(C)CC3)c(C(F)(F)F)c2)cc1C#Cc1cnc2cccnn12 = 101%
CCCS(=O)(=O)Nc1ccc(F)c(C(=O)c2c[nH]c3ncc(-c4ccc(Cl)cc4)cc23)c1F = 24%

Query: Any idea what %-inhibition of FLT4 was measured for CC(=O)Nc1cccc(-n2c(=O)n(C3CC3)c(=O)c3c(Nc4ccc(I)cc4F)n(C)c(=O)c(C)c32)c1 ?
Response: 1.51%

Query: Consider next the molecule CS(=O)(=O)CCNCc1ccc(-c2ccc3ncnc(Nc4ccc(OCc5cccc(F)c5)c(Cl)c4)c3c2)o1 in the same way.
Response: -2.21%

----------
System: panel of more than 300 wild-type and mutant kinases (313 kinase panel) (Homo sapiens, UniProt P49840)
Test description: Kinase profiling in a biochemical assay panel (mobility shift assays and ELISA), %-inhibition at 1 μM; selectivity entropy
Setup conditions: kinase GSK3α; compound at 1 μM
Listed here are compounds together with their documented %-inhibition of GSK3α.
Express it in %; write the number only.

N#CC[C@H](C1CCCC1)n1cc(-c2ncnc3[nH]ccc23)cn1 = 9
Cc1cn(-c2cc(NC(=O)c3ccc(C)c(Nc4nccc(-c5cccnc5)n4)c3)cc(C(F)(F)F)c2)cn1 = -0.491
CNC(=O)c1cc(Oc2ccc(NC(=O)Nc3ccc(Cl)c(C(F)(F)F)c3)c(F)c2)ccn1 = 37

Query: Entry under review: O=S(=O)(c1cccc2cnccc12)N1CCCNCC1 . Reported %-inhibition of GSK3α?
Response: 0.911

----------
System: panel of more than 300 wild-type and mutant kinases (313 kinase panel) (Homo sapiens, UniProt Q15831)
Sequence (Q15831 1-433): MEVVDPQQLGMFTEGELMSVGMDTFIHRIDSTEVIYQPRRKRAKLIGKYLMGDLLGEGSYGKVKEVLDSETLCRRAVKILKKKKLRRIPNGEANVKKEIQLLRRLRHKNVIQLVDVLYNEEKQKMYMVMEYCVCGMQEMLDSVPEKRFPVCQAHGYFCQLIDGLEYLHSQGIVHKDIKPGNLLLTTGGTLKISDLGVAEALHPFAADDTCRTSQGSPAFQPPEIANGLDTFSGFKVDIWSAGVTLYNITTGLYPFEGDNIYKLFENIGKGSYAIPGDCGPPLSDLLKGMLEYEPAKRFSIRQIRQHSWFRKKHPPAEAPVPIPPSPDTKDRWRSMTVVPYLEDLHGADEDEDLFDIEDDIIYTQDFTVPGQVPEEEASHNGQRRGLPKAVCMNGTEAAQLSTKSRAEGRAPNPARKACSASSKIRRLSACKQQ
Test description: Kinase profiling in a biochemical assay panel (mobility shift assays and ELISA), %-inhibition at 1 μM; selectivity entropy
Setup conditions: kinase LKB1; compound at 1 μM
Assay metric: %-inhibition of LKB1 (%)
Reply numerically in %, unit not repeated.

A selection of reference data follows.
CO[C@H]1C[C@@H]2CC[C@@H](C)[C@@](O)(O2)C(=O)C(=O)N2CCCC[C@H]2C(=O)O[C@H]([C@H](C)C[C@@H]2CC[C@@H](OC(=O)C(C)(CO)CO)[C@H](OC)C2)CC(=O)[C@H](C)/C=C(\C)[C@@H](O)[C@@H](OC)C(=O)[C@H](C)C[C@H](C)/C=C/C=C/C=C/1C [temsirolimus] = -6.57
COc1cc2c(Nc3ccc(Br)cc3F)ncnc2cc1OCC1CCN(C)CC1 [vandetanib] = -4.54
CC(=O)Nc1cccc(-n2c(=O)n(C3CC3)c(=O)c3c(Nc4ccc(I)cc4F)n(C)c(=O)c(C)c32)c1 [trametinib] = 2.38
CNC(=O)c1cc(Oc2ccc(NC(=O)Nc3ccc(Cl)c(C(F)(F)F)c3)c(F)c2)ccn1 [regorafenib] = -5

Query: Consider the molecule O=S(=O)(c1cccc2cnccc12)N1CCCNCC1 [fasudil] and give its measured %-inhibition of LKB1.
Response: 6

Query: Similarly, CS(=O)(=O)CCNCc1ccc(-c2ccc3ncnc(Nc4ccc(OCc5cccc(F)c5)c(Cl)c4)c3c2)o1 [lapatinib] ?
Response: 4

Query: Continue with Cc1ccc(C(=O)Nc2ccc(CN3CCN(C)CC3)c(C(F)(F)F)c2)cc1C#Cc1cnc2cccnn12 [ponatinib]
Response: -12
